- TARGET ENTITY: UniProtKB Q13639
- Sequence (Q13639 whole entry): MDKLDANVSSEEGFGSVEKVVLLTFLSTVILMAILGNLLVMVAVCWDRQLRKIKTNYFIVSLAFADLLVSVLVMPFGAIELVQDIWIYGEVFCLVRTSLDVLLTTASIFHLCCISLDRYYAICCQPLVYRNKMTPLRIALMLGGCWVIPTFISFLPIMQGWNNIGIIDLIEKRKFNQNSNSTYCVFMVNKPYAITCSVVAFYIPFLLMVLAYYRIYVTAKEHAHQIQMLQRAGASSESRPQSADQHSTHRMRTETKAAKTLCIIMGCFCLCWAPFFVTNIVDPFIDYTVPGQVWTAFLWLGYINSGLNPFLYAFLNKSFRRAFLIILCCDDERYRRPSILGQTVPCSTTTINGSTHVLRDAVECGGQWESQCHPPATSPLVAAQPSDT
- PROCEDURE SUMMARY: Antagonistic activity at human 5HT4 receptor expressed in HEK293 cells
- Assay type: functional, cell-based
Assignment: determine reported pKi for the given compounds.
A value of pKi is the negative decimal logarithm of a concentration given in moles per litre.

Exam item: Consider the compound shown here: `O=C(O)CCCN1CCC(CNC(=O)c2c[nH]c3ccccc23)CC1` What is its recorded pKi?
Marked response: 5.44

Exam item: And then `CCOC(=O)CCCN1CCC(CNC(=O)c2c[nH]c3ccccc23)CC1` , what is it?
Marked response: 6.97

Exam item: And then `Cn1cc(C(=O)OCC2CCN(CCNS(C)(=O)=O)CC2)c2ccccc21` , what is it?
Marked response: 10.13

Exam item: And then `O=C(O)CCCN1CCC(COC(=O)c2c[nH]c3ccccc23)CC1` , what is it?
Marked response: 9.09

These data points were gathered from ChEMBL document CHEMBL1629440.
